# IC50 measurements, system: PI3Kα (Homo sapiens)

These recorded examples may help you get a feel for the data.
Ask | Give the reported IC50 for O=c1cc(Oc2cccc(NCc3cccnc3Cl)c2)c2ccccc2[nH]1 [drawing 217] (system: PI3Kα (Homo sapiens)).
Reply | > 10 µM

Ask | Item: CN(C)CCCNC(=O)c1cccc(-c2cccc(Oc3cc(=O)[nH]c4ccccc34)c2)c1
Reply | > 10 µM

Ask | Item: O=c1cc(Oc2cccc(-c3ccc(NCCCl)cc3)c2)c2ccccc2[nH]1
Reply | > 10 µM

Ask | Item: Cc1ccc(Oc2cc(=O)[nH]c3ccccc23)cc1C
Reply | > 10 µM

Ask | Item: CC(C)(C)OCNC(=O)c1cccc(-c2cccc(Oc3cc(=O)[nH]c4ccccc34)c2)c1
Reply | > 10 µM

---
Ask | Give the reported IC50 for COC(=O)c1cc(Oc2cc(=O)[nH]c3ccccc23)ccc1OC (system: PI3Kα (Homo sapiens)).
Reply | > 10 µM

Ask | Item: O=c1cc(Oc2cccc(OCCO)c2)c2ccccc2[nH]1
Reply | 12 µM

Ask | Item: O=c1cc(Oc2cccc(NCc3ccc(F)nc3)c2)c2ccccc2[nH]1 [drawing 208]
Reply | 9.54 µM

Ask | Item: O=c1cc(Oc2cccc(F)c2)c2ccccc2[nH]1
Reply | > 10 µM

Ask | Item: CN(C)CCNC(=O)Nc1ccc(-c2cccc(Oc3cc(=O)[nH]c4ccccc34)c2)cc1
Reply | > 10 µM

Ask | Item: Cc1n[nH]c(C)c1-c1ccc(Oc2cc(=O)[nH]c3ccccc23)cc1
Reply | 6.95 µM

Ask | Item: O=c1cc(Oc2cccc(NCc3ccncc3)c2)c2ccccc2[nH]1
Reply | > 10 µM

----------
- measurement-target: UniProt P42345
- assay-overview: mTOR enzyme assay (DELFIA format, purified enzyme)
- particulars: 800 ng/ml FLAG-TOR, 100 μM ATP, 1.25 μM His6-S6K; read-out: mTOR Kinase IC50
The compounds listed here are annotated with their IC50.

Ask | Endpoint output: IC50 of O=c1cc(Oc2ccccc2)c2ccc(Cl)cc2[nH]1 . Value?
Reply | > 20 µM

---
Ask | Endpoint output: IC50 of Cn1cc(-c2ccc3c(Oc4ccccc4)cc(=O)[nH]c3c2)cn1 . Value?
Reply | > 20 µM

Ask | Item: O=c1cc(Oc2ccc(-c3ccccc3)cc2)c2ccccc2[nH]1
Reply | > 20 µM

----------
The molecules listed here are annotated with their pIC50.
- measurement-target: PI3Kα (Homo sapiens, UniProt P42336)
- Sequence (P42336 whole entry, species assumed): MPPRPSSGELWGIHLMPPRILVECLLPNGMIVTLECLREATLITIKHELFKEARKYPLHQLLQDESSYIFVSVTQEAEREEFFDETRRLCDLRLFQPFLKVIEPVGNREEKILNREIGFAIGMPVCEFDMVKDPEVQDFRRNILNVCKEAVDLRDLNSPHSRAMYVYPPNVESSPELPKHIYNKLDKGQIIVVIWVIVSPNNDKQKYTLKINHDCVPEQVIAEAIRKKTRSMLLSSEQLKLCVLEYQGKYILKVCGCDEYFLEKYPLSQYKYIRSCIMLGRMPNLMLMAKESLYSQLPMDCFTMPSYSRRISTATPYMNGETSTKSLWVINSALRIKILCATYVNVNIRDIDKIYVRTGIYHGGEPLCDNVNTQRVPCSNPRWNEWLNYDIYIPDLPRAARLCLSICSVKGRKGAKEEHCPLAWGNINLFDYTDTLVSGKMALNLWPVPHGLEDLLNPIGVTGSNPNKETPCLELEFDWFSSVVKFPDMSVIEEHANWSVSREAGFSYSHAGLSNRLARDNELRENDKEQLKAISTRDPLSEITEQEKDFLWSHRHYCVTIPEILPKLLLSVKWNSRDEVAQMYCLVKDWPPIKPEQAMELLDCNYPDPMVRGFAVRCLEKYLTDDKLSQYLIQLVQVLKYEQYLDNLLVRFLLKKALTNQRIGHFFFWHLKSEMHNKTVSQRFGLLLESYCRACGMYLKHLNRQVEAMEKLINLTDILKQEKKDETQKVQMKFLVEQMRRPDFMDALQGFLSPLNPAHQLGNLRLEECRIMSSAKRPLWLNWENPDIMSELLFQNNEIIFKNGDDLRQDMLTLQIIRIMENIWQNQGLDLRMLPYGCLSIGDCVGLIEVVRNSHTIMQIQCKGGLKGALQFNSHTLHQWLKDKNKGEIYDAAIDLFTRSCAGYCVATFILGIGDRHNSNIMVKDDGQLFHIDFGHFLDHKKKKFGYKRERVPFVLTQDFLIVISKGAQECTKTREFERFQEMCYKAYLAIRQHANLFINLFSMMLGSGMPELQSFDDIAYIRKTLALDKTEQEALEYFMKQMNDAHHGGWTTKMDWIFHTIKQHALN
- Sequence (P27986 whole entry partner, species assumed): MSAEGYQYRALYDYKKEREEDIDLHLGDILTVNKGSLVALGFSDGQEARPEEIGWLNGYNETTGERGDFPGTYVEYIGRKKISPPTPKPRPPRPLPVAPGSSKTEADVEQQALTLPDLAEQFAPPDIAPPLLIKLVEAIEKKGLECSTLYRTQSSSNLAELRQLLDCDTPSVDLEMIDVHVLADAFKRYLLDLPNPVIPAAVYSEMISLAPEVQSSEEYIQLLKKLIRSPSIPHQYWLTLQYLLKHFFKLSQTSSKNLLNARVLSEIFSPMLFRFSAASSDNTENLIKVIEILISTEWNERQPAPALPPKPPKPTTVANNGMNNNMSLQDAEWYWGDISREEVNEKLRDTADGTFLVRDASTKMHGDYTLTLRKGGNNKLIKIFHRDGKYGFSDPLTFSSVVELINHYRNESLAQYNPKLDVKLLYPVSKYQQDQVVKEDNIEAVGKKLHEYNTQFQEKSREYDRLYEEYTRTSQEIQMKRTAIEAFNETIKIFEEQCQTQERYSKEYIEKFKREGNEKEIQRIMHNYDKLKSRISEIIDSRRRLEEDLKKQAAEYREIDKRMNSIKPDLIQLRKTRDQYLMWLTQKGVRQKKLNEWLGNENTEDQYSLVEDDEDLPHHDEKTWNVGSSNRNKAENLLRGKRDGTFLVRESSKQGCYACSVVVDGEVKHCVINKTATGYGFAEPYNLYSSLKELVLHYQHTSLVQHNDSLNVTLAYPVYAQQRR
pIC50: −log10 of the molar value.

Ask | Endpoint output: pIC50 of O=c1cc(Oc2cccnc2)c2ccccc2[nH]1 [drawing 388] . Value?
Reply | < 5.00

Ask | Item: CC(C)(C)OC(=O)NC1(CNc2cccc(Oc3cc(=O)[nH]c4ccccc34)c2)CCCC1
Reply | 5.29

Ask | Item: O=c1cc(Oc2cccc(-c3cccc(CN4CCOCC4)c3)c2)c2ccccc2[nH]1
Reply | 5.17

Ask | Item: Nc1ccncc1CNc1cccc(Oc2cc(=O)[nH]c3ccccc23)c1
Reply | < 5.00

Ask | Item: Cn1cc(-c2ccc3c(Oc4ccccc4)cc(=O)[nH]c3c2)cn1
Reply | 5.33

---
Ask | Endpoint output: pIC50 of CN(C)CCCOc1ccc(-c2cccc(Oc3cc(=O)[nH]c4ccccc34)c2)cn1 . Value?
Reply | < 5.00

Ask | Item: O=c1cc(Oc2ccc(C3=NCCCN3)cc2)c2ccccc2[nH]1
Reply | < 5.00

Ask | Item: Cc1cccc(Oc2cc(=O)[nH]c3ccccc23)c1 [drawing 313]
Reply | < 5.00

Ask | Item: CN1CCN(CCNc2ccc(-c3cccc(Oc4cc(=O)[nH]c5ccccc45)c3)cc2)CC1
Reply | < 5.00

Ask | Item: O=c1cc(Oc2cccc(N3CCOCC3)c2)c2ccccc2[nH]1
Reply | < 5.00

Ask | Item: COc1cccc(Oc2cc(=O)[nH]c3ccccc23)c1
Reply | < 5.00
